- System: LOX IMVI
- protocolDetails: NCI tumour cell line growth inhibition, 48 h
Where a name gives a salt, the structure may show the parent alone. Calls of active or inactive are those of the source. Cut-off read from the data, not from the text of the source: active = GI50 up to about 1.1 µM and inactive = higher.
Would you mind answering with one of these outcomes? active, inactive

Recorded test outcome, item `CCCC[C@@H](C)/C=C1\CN2CCC[C@H]2[C@@](C)(OCc2ccccc2)[C@@H]1O` inactive

Could you kindly confirm the outcome this assay logged for CSc1nc(Br)nc2ncn(C3CC(Oc4ccc(C)cc4)C(COc4ccc(C)cc4)O3)c12 (centres undefined) ? inactive

Which outcome was entered for the compound `Cc1cc(NS(=O)(=O)c2ccc(NC(=O)COC(=O)c3cccc4c(=O)c5ccccc5[nH]c34)cc2)no1` in this test? inactive

Hi, sorry to bother you, what did the test record for `Cc1cc(S(=O)(=O)/N=C(\NN)NCC(=O)NN)c(S)cc1Cl` ? inactive

Each compound tested received a call. Report the one for `Cc1ccc(NC(=O)NC23CC4CC(CC(F)(C4)C2)C3)cc1` . inactive

Outcome logged for `O=C(NNC(=O)c1ccccc1O)c1ccccc1O` in this assay: active

So what was the verdict on COc1cc(C2SC(=N)Nc3c2c(C)nn3C(=O)c2ccc(Cl)cc2)cc(OC)c1OC (centres undefined) in this test? inactive

I'd appreciate the recorded outcome for `C=C1C(=O)O[C@H]2[C@H]3O[C@@H](C[C@@H]12)[C@@]1(C)CC[C@H](O1)[C@H](C)CCC[C@H]3C` from this test. inactive

Hello, I am checking results. What call was entered for `COc1ccc2c(c1)OCCc1cn[nH]c1-2` ? inactive

Answer briefly: the call reported for `CCc1cccc(C)c1NC(=O)C1=C(C)NC(C)=C(C(=O)Nc2c(C)cccc2CC)C1c1ccc([N+](=O)[O-])cc1` in this assay. inactive

Please state the recorded outcome for this compound: `CCOC(=O)N/N=C(\CC)NO` inactive

What did this assay record as the result for COc1ccc(C2CC3(c4ccccc4)ON=C(c4ccccc4)N3c3ccccc3S2)cc1 (centres undefined) ? inactive

For OCC(O)C(OC1OC(CO)C(O)C(O)C1O)c1nn(-c2ccc(F)cc2)c2nc3cc(Cl)c(Cl)cc3cc12 (centres undefined) , what call appears in the results of this test? inactive

Name the outcome recorded for `CCC(=O)NC(Nc1ccc(O)cc1)(C(F)(F)F)C(F)(F)F` in the assay. inactive

GET /call?item= `CCOC(=O)CC1=CSC2=NCCN12` returns the recorded outcome of this test. inactive

Please indicate how the test categorized `CCOC(=O)C1(CO)CSCCSC1` . inactive

Can you look up the reported call for CC[C@]12CN3CCc4c([nH]c5ccccc45)[C@@](C(=O)OC)(c4cc5c(cc4OC)N(C)[C@H]4[C@@](O)(C(=O)OC)[C@H](OC(C)=O)[C@]6(CC)C=CCN7CC[C@]54[C@@H]76)CC(C3)[C@H]1O2 (some centres undefined) [VINLEUROSINE SULFATE] for me? active

For O=C1C2C3C=C4c5ccccc5N(c5ccccc5)C4(C2C(=O)N1c1ccc(Cl)cc1)[C@H]1C(=O)N(c2ccc(Cl)cc2)C(=O)[C@@H]31 (some centres undefined) , what call appears in the results of this test? inactive

Per the assay record, what outcome was assigned to COc1ccc(C2c3c(n(C)c(=O)n(C)c3=O)OC(N(C)C)(N(C)C)C2(F)F)cc1 (centres undefined) ? inactive

# lookup: test call for `CCOC(=O)c1ccc(-c2cc(C)no2)[nH]1` inactive

Would you mind telling me which call this test gave `CCOc1ccc2ccc3cccnc3c2n1` ? inactive

Hi, do you know how CCOC(=O)C1(C#N)C(c2ccccc2)CC(O)(c2ccc([N+](=O)[O-])cc2)C(C(=O)c2ccc([N+](=O)[O-])cc2)C1c1ccccc1 (centres undefined) came out in this test? inactive

For this compound, state the assay outcome: COC(=O)c1cc(C)ccc1C1CN=NC12Cc1ccc(C)cc1C2=O (centres undefined) inactive

Record request — test call for NC1=NN(c2ccccc2)C(=O)C1C(=O)CCC(=O)Nc1cccc(Cl)c1 (centres undefined) inactive

Name the outcome recorded for `CC(C)NC(=O)OCCN=c1c2ccccc2ccc2ccccc12` in the assay. inactive

I'd appreciate the recorded outcome for `O=C(/C=C/c1ccc(OCC(=O)N2CCN(c3ccccc3)CC2)cc1)c1ccc(Cl)cc1` from this test. inactive

Could you check what this test reported for `Cc1cccc2c1[nH]c1[nH]c(=O)[nH]c(=O)c12` ? inactive

I would be grateful if you could indicate the recorded call for N#CC(c1ccccc1)N(CCOCCOCCN(C(=O)c1ccccc1)C(C#N)c1ccccc1)C(=O)c1ccccc1 (centres undefined) . inactive

Assay result, entry Cc1ccc(-c2c3c(n(C4OC(CO)C(O)C(O)C4O)c(=S)c2C#N)CC(C)(C)CC3=O)cc1 (centres undefined) — outcome? inactive
